FYI, the data here is from ChEMBL document CHEMBL3822358.

Target: ALK tyrosine kinase receptor (Homo sapiens, UniProt Q9UM73)
Sequence (Q9UM73 whole entry): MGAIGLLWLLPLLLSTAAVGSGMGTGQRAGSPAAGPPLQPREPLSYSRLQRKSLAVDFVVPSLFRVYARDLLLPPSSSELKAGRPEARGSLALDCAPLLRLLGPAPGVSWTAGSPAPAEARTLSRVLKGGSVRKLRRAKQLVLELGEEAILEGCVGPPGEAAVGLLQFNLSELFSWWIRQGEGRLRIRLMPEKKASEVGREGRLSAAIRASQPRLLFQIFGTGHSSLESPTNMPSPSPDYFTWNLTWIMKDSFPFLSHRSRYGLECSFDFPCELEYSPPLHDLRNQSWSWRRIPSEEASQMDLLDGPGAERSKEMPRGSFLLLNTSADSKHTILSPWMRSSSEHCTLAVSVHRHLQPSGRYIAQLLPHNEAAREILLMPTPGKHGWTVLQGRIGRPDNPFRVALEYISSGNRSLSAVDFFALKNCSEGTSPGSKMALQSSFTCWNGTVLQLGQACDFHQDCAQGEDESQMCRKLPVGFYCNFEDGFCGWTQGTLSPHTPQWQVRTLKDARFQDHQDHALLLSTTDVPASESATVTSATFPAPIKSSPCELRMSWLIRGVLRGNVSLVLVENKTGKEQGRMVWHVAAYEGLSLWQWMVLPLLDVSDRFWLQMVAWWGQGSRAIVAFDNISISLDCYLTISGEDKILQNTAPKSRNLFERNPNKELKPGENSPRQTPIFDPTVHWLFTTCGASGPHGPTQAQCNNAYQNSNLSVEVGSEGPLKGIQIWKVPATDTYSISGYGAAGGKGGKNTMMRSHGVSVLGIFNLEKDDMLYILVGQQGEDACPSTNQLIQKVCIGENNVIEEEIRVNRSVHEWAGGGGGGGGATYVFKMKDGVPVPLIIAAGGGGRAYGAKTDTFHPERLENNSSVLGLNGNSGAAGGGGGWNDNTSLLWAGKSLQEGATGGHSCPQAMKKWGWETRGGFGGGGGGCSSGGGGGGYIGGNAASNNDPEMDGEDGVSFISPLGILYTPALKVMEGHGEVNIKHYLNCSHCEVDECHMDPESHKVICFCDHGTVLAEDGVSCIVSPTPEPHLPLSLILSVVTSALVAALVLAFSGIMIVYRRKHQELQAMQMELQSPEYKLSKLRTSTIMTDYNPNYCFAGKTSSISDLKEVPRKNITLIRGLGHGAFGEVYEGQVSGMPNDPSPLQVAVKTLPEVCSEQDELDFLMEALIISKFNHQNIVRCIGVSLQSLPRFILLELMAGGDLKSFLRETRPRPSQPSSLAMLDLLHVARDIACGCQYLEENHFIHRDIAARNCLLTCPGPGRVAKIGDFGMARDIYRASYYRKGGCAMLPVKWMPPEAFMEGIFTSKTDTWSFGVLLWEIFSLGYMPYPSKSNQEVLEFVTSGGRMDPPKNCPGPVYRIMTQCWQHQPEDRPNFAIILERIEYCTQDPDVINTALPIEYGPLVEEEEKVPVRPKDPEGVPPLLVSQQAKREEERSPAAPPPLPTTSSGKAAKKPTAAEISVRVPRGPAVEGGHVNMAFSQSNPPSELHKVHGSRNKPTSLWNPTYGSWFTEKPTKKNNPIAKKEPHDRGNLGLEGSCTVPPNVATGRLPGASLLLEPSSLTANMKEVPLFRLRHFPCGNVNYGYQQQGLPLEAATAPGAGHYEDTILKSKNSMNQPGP
IC50 vs 0.3 nM: less than gives Y; not less than gives N.

[
  {
    "given smiles": "COc1cc(N2CCN(C)CC2)ccc1Nc1ncc(Cl)c(Nc2ccccc2P(C)(C)=O)n1",
    "class": "Y"
  }
]

Now turn to the next compound.
Hello, is IC50 of the following compound strictly smaller than 0.3 nM? COc1cc(N2CCC(N3CCOCC3)CC2)ccc1Nc1ncc(Cl)c(Nc2ccccc2P(C)(C)=O)n1 N

====

Assay: Tmax in CD rat at 10 mg/kg, po by LC-MS/MS analysis
Assay type: ADME, organism-based
Settings: in vivo
metric: Tmax (h)
Give your result in h as a bare value.

Reference set, count: 3
[
  {
    "given smiles": "COc1cc(N2CCC(N3CCOCC3)CC2)ccc1Nc1ncc(Cl)c(Nc2ccccc2P(C)(C)=O)n1",
    "measured result": 2
  },
  {
    "given smiles": "COc1cc(N2CCC(O)CC2)ccc1Nc1ncc(Cl)c(Nc2ccccc2P(C)(C)=O)n1",
    "measured result": 0.25
  },
  {
    "given smiles": "COc1cc(N2CCC(CN3CCC3)CC2)ccc1Nc1ncc(Cl)c(Nc2ccccc2P(C)(C)=O)n1",
    "measured result": 6
  }
]

Okay, now this molecule:
Fill in the blank: the reported Tmax of COc1cc(OC2CCN(C)CC2)ccc1Nc1ncc(Cl)c(Nc2ccccc2P(C)(C)=O)n1 is ____. 4

====

Test: Protein binding in human plasma
Format: ADME, cell-free
Details: read-out: PPB (converted)
metric: fraction unbound
Answer with a number only.

// returns reported fraction unbound for input COc1cc(N2CCC(N3CCN(C)CC3)CC2)ccc1Nc1ncc(Cl)c(Nc2ccccc2P(C)(C)=O)n1 [BRIGATINIB] 0.34

====

Assay: Volume of distribution at steady state in CD rat at 3 mg/kg, iv by LC-MS/MS analysis
Format: ADME, organism-based
Details: CD, in vivo, read-out: Vdss
metric: log10 of Vd (log10 of the value in L/kg)
Log10 applied to Vd; unit prior to transform: L/kg.

[
  {
    "given smiles": "COc1cc(N2CCN(CCO)CC2)ccc1Nc1ncc(Cl)c(Nc2ccccc2P(C)(C)=O)n1",
    "measured result": 0.98
  },
  {
    "given smiles": "COc1cc(OC2CCN(C)CC2)ccc1Nc1ncc(Cl)c(Nc2ccccc2P(C)(C)=O)n1",
    "measured result": 0.46
  },
  {
    "given smiles": "COc1cc(N2CCN(C)CC2)ccc1Nc1ncc(Cl)c(Nc2ccccc2P(C)(C)=O)n1",
    "measured result": 0.79
  },
  {
    "given smiles": "COc1cc(C2CCN(C)CC2)ccc1Nc1ncc(Cl)c(Nc2ccccc2P(C)(C)=O)n1",
    "measured result": 0.93
  }
]

Shifting focus to the compound that follows.
Reported log10 of Vd, compound COc1cc(N2CCC(N3CCOCC3)CC2)ccc1Nc1ncc(Cl)c(Nc2ccccc2P(C)(C)=O)n1 : ____ -0.11

====

Assay: Half life in CD rat at 3 mg/kg, iv by LC-MS/MS analysis
Type: ADME, organism-based
Conditions: CD, in vivo
metric: half-life (min)
Note: unit min is implicit; provide only the numeric part.

Examples with their reported half-life follow.
[
  {
    "given smiles": "COc1cc(OC2CCN(C)CC2)ccc1Nc1ncc(Cl)c(Nc2ccccc2P(C)(C)=O)n1",
    "metric": "half-life",
    "measured result": 216
  },
  {
    "given smiles": "COc1cc(N2CCC(N3CCOCC3)CC2)ccc1Nc1ncc(Cl)c(Nc2ccccc2P(C)(C)=O)n1",
    "metric": "half-life",
    "measured result": 234
  }
]

Proceeding to the next compound to report its half-life.
Item under review: COc1cc(N2CCC(N3CCCC3)CC2)ccc1Nc1ncc(Cl)c(Nc2ccccc2P(C)(C)=O)n1 . Reported half-life? 282

====

Biological target: Insulin-like growth factor 1 receptor (Homo sapiens, UniProt P08069)
Sequence (P08069 31-736 limits assumed): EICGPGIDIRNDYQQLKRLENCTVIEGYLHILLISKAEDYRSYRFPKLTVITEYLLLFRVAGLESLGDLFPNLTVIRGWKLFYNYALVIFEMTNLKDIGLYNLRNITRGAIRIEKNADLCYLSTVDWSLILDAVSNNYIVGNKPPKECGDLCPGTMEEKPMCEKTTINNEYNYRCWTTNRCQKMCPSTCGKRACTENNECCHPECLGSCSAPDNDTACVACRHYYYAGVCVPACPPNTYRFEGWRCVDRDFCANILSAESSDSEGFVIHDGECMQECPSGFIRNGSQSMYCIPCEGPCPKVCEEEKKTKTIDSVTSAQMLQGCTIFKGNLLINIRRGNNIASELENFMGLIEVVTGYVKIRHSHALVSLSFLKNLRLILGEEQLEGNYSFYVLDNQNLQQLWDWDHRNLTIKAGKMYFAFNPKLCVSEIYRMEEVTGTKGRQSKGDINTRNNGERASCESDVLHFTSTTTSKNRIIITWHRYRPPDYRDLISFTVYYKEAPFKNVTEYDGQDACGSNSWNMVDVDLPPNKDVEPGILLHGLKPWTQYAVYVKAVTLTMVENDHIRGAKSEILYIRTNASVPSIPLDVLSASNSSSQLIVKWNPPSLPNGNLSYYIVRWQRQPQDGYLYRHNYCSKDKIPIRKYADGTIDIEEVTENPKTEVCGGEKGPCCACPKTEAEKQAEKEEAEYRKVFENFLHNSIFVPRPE
Sequence (P08069 741-1367 limits assumed): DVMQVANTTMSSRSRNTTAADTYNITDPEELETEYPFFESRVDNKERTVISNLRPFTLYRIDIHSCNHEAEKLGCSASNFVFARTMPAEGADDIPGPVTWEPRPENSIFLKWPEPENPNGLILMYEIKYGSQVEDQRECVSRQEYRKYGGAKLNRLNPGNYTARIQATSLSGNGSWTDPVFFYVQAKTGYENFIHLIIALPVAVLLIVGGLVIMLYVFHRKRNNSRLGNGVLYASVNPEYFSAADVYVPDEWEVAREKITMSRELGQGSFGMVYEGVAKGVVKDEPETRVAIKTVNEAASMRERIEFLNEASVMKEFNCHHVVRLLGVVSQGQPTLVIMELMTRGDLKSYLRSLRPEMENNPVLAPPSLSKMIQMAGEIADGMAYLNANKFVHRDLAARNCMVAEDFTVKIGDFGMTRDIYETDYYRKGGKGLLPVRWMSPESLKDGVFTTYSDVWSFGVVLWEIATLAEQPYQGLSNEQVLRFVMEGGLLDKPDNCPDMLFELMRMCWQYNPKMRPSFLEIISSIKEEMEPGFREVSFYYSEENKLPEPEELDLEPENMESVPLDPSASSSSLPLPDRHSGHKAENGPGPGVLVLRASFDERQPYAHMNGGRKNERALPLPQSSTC
Entries whose IC50 is below 20 nM take T; entries at or above 20 nM take F.

Worked examples, 5 compounds total:
[
  {
    "given smiles": "COc1cc(N2CCCN(C)CC2)ccc1Nc1ncc(Cl)c(Nc2ccccc2P(C)(C)=O)n1",
    "class": "F"
  },
  {
    "given smiles": "COc1cc(OCCCN2CCCC2)ccc1Nc1ncc(Cl)c(Nc2ccccc2P(C)(C)=O)n1",
    "class": "T"
  },
  {
    "given smiles": "COc1cc(N2CCC(N3CCN(C)CC3)CC2)ccc1Nc1ncc(OC)c(Nc2ccccc2P(C)(C)=O)n1",
    "class": "F"
  },
  {
    "given smiles": "COc1cc(N2CCN(CCO)CC2)ccc1Nc1ncc(Cl)c(Nc2ccccc2P(C)(C)=O)n1",
    "class": "T"
  },
  {
    "given smiles": "COc1cc(P(C)(C)=O)ccc1Nc1ncc(Cl)c(Nc2ccccc2S(=O)(=O)C(C)C)n1",
    "class": "T"
  }
]

Answer whether the compound COc1cc(N2CCN(C3CCN(C)CC3)CC2)ccc1Nc1ncc(Cl)c(Nc2ccccc2P(C)(C)=O)n1 has IC50 strictly less than 20 nM F

Field: below-cutoff. Rule: recorded IC50 strictly less than 20 nM. Subject: COc1cc(N2CCC(N3CCN(C)CC3)CC2)ccc1Nc1ncc(Cl)c(Nc2ccccc2C(N)=O)n1 T

Threshold test, IC50 < 20 nM: COc1cc(N2CCC(O)CC2)ccc1Nc1ncc(Cl)c(Nc2ccccc2P(C)(C)=O)n1 F

====

Assay: Oral bioavailability in CD rat at 10 mg/kg by LC-MS/MS analysis
Assay type: ADME, organism-based
Settings: in vivo
Categories are assigned from the measured bioavailability using these intervals: Low (below 20%), Mid (20% to below 60%), High (60% or more)

[
  {
    "given smiles": "COc1cc(N2CCN(CCO)CC2)ccc1Nc1ncc(Cl)c(Nc2ccccc2P(C)(C)=O)n1",
    "class": "Low"
  }
]

Lab log: COc1cc(N2CCC(N3CCOCC3)CC2)ccc1Nc1ncc(Cl)c(Nc2ccccc2P(C)(C)=O)n1 — assign bioavailability category High

Sort into band: COc1cc(N2CCC(N3CCCC3)CC2)ccc1Nc1ncc(Cl)c(Nc2ccccc2P(C)(C)=O)n1 Low

Bin this entry: COc1cc(N2CCC(O)CC2)ccc1Nc1ncc(Cl)c(Nc2ccccc2P(C)(C)=O)n1 High

Lab log: COc1cc(N2CCC(CN3CCC3)CC2)ccc1Nc1ncc(Cl)c(Nc2ccccc2P(C)(C)=O)n1 — assign bioavailability category Low

Given COc1cc(N2CCC(N3CCN(C)CC3)CC2)ccc1Nc1ncc(Cl)c(Nc2ccccc2P(C)(C)=O)n1 , name the class its bioavailability places it in. Mid

====

Each entry below carries its reported half-life.
Assay: Half life in CD rat at 3 mg/kg, iv by LC-MS/MS analysis
Assay type: ADME, organism-based
Conditions: CD, in vivo
Could you give me the number in h? Just the number is fine.

Some solved cases for reference:
[
  {
    "given smiles": "COc1cc(N2CCC(CN3CCC3)CC2)ccc1Nc1ncc(Cl)c(Nc2ccccc2P(C)(C)=O)n1",
    "metric": "half-life",
    "measured result": 3.6
  },
  {
    "given smiles": "COc1cc(N2CCC(O)CC2)ccc1Nc1ncc(Cl)c(Nc2ccccc2P(C)(C)=O)n1",
    "metric": "half-life",
    "measured result": 5.6
  },
  {
    "given smiles": "COc1cc(N2CCN(CCO)CC2)ccc1Nc1ncc(Cl)c(Nc2ccccc2P(C)(C)=O)n1",
    "metric": "half-life",
    "measured result": 8.4
  },
  {
    "given smiles": "COc1cc(C2CCN(C)CC2)ccc1Nc1ncc(Cl)c(Nc2ccccc2P(C)(C)=O)n1",
    "metric": "half-life",
    "measured result": 4
  }
]

Switching to the query record.
What value of measured half-life is listed for COc1cc(N2CCN(C)CC2)ccc1Nc1ncc(Cl)c(Nc2ccccc2P(C)(C)=O)n1 ? 6.6

====

Experiment: Half life in mouse at 10 mg/kg, po by LC-MS/MS analysis
Assay type: ADME, organism-based
Settings: in vivo
metric: half-life

[
  {
    "compound": "COc1cc(N2CCC(CN3CCC3)CC2)ccc1Nc1ncc(Cl)c(Nc2ccccc2P(C)(C)=O)n1",
    "half-life": "3.1 h"
  }
]

Read the next record carefully.
So what's the measured half-life for this one? COc1cc(N2CCC(O)CC2)ccc1Nc1ncc(Cl)c(Nc2ccccc2P(C)(C)=O)n1 2.2 h

====

Assay: Aqueous solubility of the compound at physiological pH
Type: physicochemical
Conditions: buffer
metric: solubility (µg/mL)
Response body: numeric value in µg/mL, unit text excluded.

Which measured solubility value corresponds to COc1cc(N2CCC(N3CCN(C)CC3)CC2)ccc1Nc1ncc(Cl)c(Nc2ccccc2P(C)(C)=O)n1 [BRIGATINIB] ? 337
